- Experiment: in vivo
- Test Parameters: SD, rat, iv, 1 mg/kg
Outcome Measure: log10 of AUC(0-t) (log10 of the value in ng·h/mL)
Give log10 of AUC(0-t), with AUC(0-t) taken in ng·h/mL.

Look over these answered cases.
| Molecule | log10 of AUC(0-t) |
| --- | --- |
| CC(C)Cn1ccc2c(N[C@H]3C4CCC(CC4)[C@@H]3C(=O)O)nc(-c3c[nH]c4ncc(Cl)nc34)nc21 | 3.54 |
| CC(C)(C)[C@@H](CC(=O)O)Nc1nc(-c2c[nH]c3ncc(Cl)nc23)nc(-c2ccco2)c1F | 3.19 |
| O=C(O)[C@H]1C2CCC(CC2)[C@@H]1Nc1nc(-c2c[nH]c3ncc(Cl)nc23)nc(-c2cccs2)c1F | 4.00 |
| O=C(O)[C@H]1C2CCC(CC2)[C@@H]1Nc1nc(-c2c[nH]c3ncc(Cl)nc23)nc2c1ccn2C(CF)CF | 3.37 |
| O=C(O)[C@H]1C2CCC(CC2)[C@@H]1Nc1nc(-c2c[nH]c3ncc(Cl)nc23)nc(-c2ccc(C3CC3)s2)c1F | 3.29 |
| O=C(O)[C@H]1C2CCC(CC2)[C@@H]1Nc1nc(-c2c[nH]c3ncc(Cl)nc23)ncc1F [Compound A, reference compound] | 2.95 |

--- query ---
Task: Which log10 of AUC(0-t) is listed for `O=C(O)[C@H]1C2CCC(CC2)[C@@H]1Nc1nc(-c2c[nH]c3ncc(Cl)nc23)nc(-c2ccc(Cl)s2)c1F` ?
Output: 3.68

----------
- Experiment: in vivo
- Test Parameters: SD, rat, iv, 1 mg/kg
clearance overview
Write the numeric value and append its unit.

Task: Which clearance is listed for `O=C(O)[C@H]1C2CCC(CC2)[C@@H]1Nc1nc(-c2c[nH]c3ncc(Cl)nc23)nc2c1ccn2C(CF)CF` ?
Output: 121 mL/min/kg

Task: Which clearance is listed for `CC(C)(C)[C@@H](CC(=O)O)Nc1nc(-c2c[nH]c3ncc(Cl)nc23)nc(-c2ccco2)c1F` ?
Output: 187 mL/min/kg

Task: Which clearance is listed for `O=C(O)[C@H]1C2CCC(CC2)[C@@H]1Nc1nc(-c2c[nH]c3ncc(Cl)nc23)nc(-c2cccs2)c1F` ?
Output: 27.8 mL/min/kg

Task: Which clearance is listed for `O=C(O)[C@H]1C2CCC(CC2)[C@@H]1Nc1nc(-c2c[nH]c3ncc(Cl)nc23)nc(-c2ccc(C3CC3)s2)c1F` ?
Output: 144 mL/min/kg

----------
AUC(0-t) overview
- Experiment: in vivo
- Test Parameters: SD, rat, iv, 1 mg/kg
Write the numeric value and append its unit.

Look over these answered cases.
| Compound | AUC(0-t) |
| --- | --- |
| O=C(O)[C@H]1C2CCC(CC2)[C@@H]1Nc1nc(-c2c[nH]c3nc(Cl)cnc23)nc(-c2cccs2)c1F | 3670 ng·h/mL |
| O=C(O)[C@H]1C2CCC(CC2)[C@@H]1Nc1nc(-c2c[nH]c3ncc(Cl)nc23)nc(-c2nccs2)c1F | 3940 ng·h/mL |
| O=C(O)[C@H]1C2CCC(CC2)[C@@H]1Nc1nc(-c2c[nH]c3ncc(Cl)nc23)nc(-c2ccc(F)s2)c1F | 5390 ng·h/mL |

--- query ---
Task: Which AUC(0-t) is listed for `O=C(O)[C@H]1C2CCC(CC2)[C@@H]1Nc1nc(-c2c[nH]c3ncc(Cl)nc23)nc(-c2cc3ccccc3s2)c1F` ?
Output: 3220 ng·h/mL

----------
- Experiment: in vivo
- Test Parameters: SD, rat, po, 5 mg/kg
Outcome Measure: AUC(0-inf) (ng·h/mL)
Just the number in ng·h/mL, nothing appended.

| Compound | Unit Info | Value Reported |
| --- | --- | --- |
| CC(C)(C)[C@@H](CC(=O)O)Nc1nc(-c2c[nH]c3ncc(Cl)nc23)nc(-c2ccco2)c1F [Example 8] | ng·h/mL | 5440 |
| O=C(O)[C@H]1C2CCC(CC2)[C@@H]1Nc1nc(-c2c[nH]c3ncc(Cl)nc23)nc(-c2ccc(F)s2)c1F [Example 62] | ng·h/mL | 25000 |

Task: Which AUC(0-inf) is listed for O=C(O)[C@H]1C2CCC(CC2)[C@@H]1Nc1nc(-c2c[nH]c3ncc(Cl)nc23)nc(-c2cc3ccccc3s2)c1F [Example 7a] ?
Output: 9950

Task: Which AUC(0-inf) is listed for O=C(O)[C@H]1C2CCC(CC2)[C@@H]1Nc1nc(-c2c[nH]c3ncc(Cl)nc23)nc(-c2ccc(C3CC3)s2)c1F [Example 27] ?
Output: 7250

Task: Which AUC(0-inf) is listed for O=C(O)[C@H]1C2CCC(CC2)[C@@H]1Nc1nc(-c2c[nH]c3ncc(Cl)nc23)nc(-c2nccs2)c1F [Example 49] ?
Output: 3550

Task: Which AUC(0-inf) is listed for CC(C)Cn1ccc2c(N[C@H]3C4CCC(CC4)[C@@H]3C(=O)O)nc(-c3c[nH]c4ncc(Cl)nc34)nc21 [Example 66] ?
Output: 12600

Task: Which AUC(0-inf) is listed for O=C(O)[C@H]1C2CCC(CC2)[C@@H]1Nc1nc(-c2c[nH]c3nc(Cl)cnc23)nc(-c2cccs2)c1F [Example 53] ?
Output: 18000

----------
- Experiment: in vivo
- Test Parameters: SD, rat, iv, 1 mg/kg
Label 1 (yes) when clearance is at or above 70 mL/min/kg; anything below gets 0 (no).

| Molecule | Assigned Class |
| --- | --- |
| O=C(O)[C@H]1C2CCC(CC2)[C@@H]1Nc1nc(-c2c[nH]c3nc(Cl)cnc23)nc(-c2cccs2)c1F [Example 53] | 1 (yes) |

We now examine a further molecule.
Task: Does the molecule O=C(O)[C@H]1C2CCC(CC2)[C@@H]1Nc1nc(-c2c[nH]c3ncc(Cl)nc23)nc(-c2cc3ccccc3s2)c1F [Example 7a] have recorded clearance that is 70 mL/min/kg or more?
Output: 1 (yes)

----------
- Experiment: in vivo
- Test Parameters: SD, rat, iv, 1 mg/kg
AUC(0-inf) overview
Just the number in ng·h/mL, nothing appended.

Look over these answered cases.
| Molecule | AUC(0-inf), ng·h/mL |
| --- | --- |
| O=C(O)[C@H]1C2CCC(CC2)[C@@H]1Nc1nc(-c2c[nH]c3nc(Cl)cnc23)nc(-c2cccs2)c1F | 3740 |
| O=C(O)[C@H]1C2CCC(CC2)[C@@H]1Nc1nc(-c2c[nH]c3ncc(Cl)nc23)nc(-c2ccc(C3CC3)s2)c1F | 1960 |

Task: Which AUC(0-inf) is listed for `O=C(O)[C@H]1C2CCC(CC2)[C@@H]1Nc1nc(-c2c[nH]c3ncc(Cl)nc23)nc2c1ccn2C(CF)CF` ?
Output: 2390

Task: Which AUC(0-inf) is listed for `O=C(O)[C@H]1C2CCC(CC2)[C@@H]1Nc1nc(-c2c[nH]c3ncc(Cl)nc23)nc(-c2cccs2)c1F` ?
Output: 10100

Task: Which AUC(0-inf) is listed for `O=C(O)[C@H]1C2CCC(CC2)[C@@H]1Nc1nc(-c2c[nH]c3ncc(Cl)nc23)nc(-c2ccc(F)s2)c1F` ?
Output: 5510

Task: Which AUC(0-inf) is listed for `CC(C)Cn1ccc2c(N[C@H]3C4CCC(CC4)[C@@H]3C(=O)O)nc(-c3c[nH]c4ncc(Cl)nc34)nc21` ?
Output: 3480

Task: Which AUC(0-inf) is listed for `O=C(O)[C@H]1C2CCC(CC2)[C@@H]1Nc1nc(-c2c[nH]c3ncc(Cl)nc23)nc(-c2cc3ccccc3s2)c1F` ?
Output: 3260

Task: Which AUC(0-inf) is listed for `CC(C)(C)[C@@H](CC(=O)O)Nc1nc(-c2c[nH]c3ncc(Cl)nc23)nc(-c2ccco2)c1F` ?
Output: 1550

Task: Which AUC(0-inf) is listed for `O=C(O)[C@H]1C2CCC(CC2)[C@@H]1Nc1nc(-c2c[nH]c3ncc(Cl)nc23)nc(-c2ccc(Cl)s2)c1F` ?
Output: 4980

Task: Which AUC(0-inf) is listed for O=C(O)[C@H]1C2CCC(CC2)[C@@H]1Nc1nc(-c2c[nH]c3ncc(Cl)nc23)ncc1F [Compound A, reference compound] ?
Output: 894

Task: Which AUC(0-inf) is listed for `O=C(O)[C@H]1C2CCC(CC2)[C@@H]1Nc1nc(-c2c[nH]c3ncc(Cl)nc23)nc(-c2nccs2)c1F` ?
Output: 3950

----------
AUC(0-t) overview
- Experiment: in vivo
- Test Parameters: SD, rat, po, 5 mg/kg

Look over these answered cases.
| Compound | AUC(0-t) |
| --- | --- |
| O=C(O)[C@H]1C2CCC(CC2)[C@@H]1Nc1nc(-c2c[nH]c3ncc(Cl)nc23)nc(-c2ccc(C3CC3)s2)c1F | 7170 ng·h/mL |
| O=C(O)[C@H]1C2CCC(CC2)[C@@H]1Nc1nc(-c2c[nH]c3ncc(Cl)nc23)ncc1F [Compound A, reference compound] | 2880 ng·h/mL |

--- query ---
Task: Which AUC(0-t) is listed for `O=C(O)[C@H]1C2CCC(CC2)[C@@H]1Nc1nc(-c2c[nH]c3ncc(Cl)nc23)nc(-c2ccc(Cl)s2)c1F` ?
Output: 23700 ng·h/mL
